Target: Aryl hydrocarbon Receptor (AhR) (Rattus norvegicus)
Sequence (P41738 10-853): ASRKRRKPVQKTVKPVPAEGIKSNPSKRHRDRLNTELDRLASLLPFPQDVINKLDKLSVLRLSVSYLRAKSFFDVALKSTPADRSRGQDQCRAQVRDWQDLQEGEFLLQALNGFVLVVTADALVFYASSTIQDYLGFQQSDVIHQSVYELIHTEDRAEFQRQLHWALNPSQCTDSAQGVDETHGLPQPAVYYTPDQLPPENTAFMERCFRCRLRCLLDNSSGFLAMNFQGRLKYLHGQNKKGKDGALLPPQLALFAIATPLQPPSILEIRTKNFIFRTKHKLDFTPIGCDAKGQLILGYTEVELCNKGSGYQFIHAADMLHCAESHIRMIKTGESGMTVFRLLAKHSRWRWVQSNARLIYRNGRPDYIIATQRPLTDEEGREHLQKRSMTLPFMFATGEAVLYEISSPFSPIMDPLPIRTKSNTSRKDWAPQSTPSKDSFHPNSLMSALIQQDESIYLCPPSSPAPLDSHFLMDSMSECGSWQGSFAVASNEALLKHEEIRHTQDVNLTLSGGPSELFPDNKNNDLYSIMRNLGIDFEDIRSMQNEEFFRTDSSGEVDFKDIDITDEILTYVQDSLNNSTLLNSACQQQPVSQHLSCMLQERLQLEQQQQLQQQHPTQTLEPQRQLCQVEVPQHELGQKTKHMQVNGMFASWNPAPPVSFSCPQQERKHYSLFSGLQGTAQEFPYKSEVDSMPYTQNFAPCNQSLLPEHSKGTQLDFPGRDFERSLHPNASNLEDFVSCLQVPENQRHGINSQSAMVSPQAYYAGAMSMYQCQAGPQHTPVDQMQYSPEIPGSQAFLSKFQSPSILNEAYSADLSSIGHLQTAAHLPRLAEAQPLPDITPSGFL
Test: AhR (PAH) CALUX reporter gene assay
Conditions: EC50 AhR reference compound (mean), LAB D
recordedMetric: pEC50
Notebook: values listed as pEC50 are -log10 of the concentration (mol/L).

Requested read-out: pEC50. Entry: c1ccc2c(c1)cc1ccc3cccc4ccc2c1c34 [Benzo(a)pyrene, benzo[a]pyrene]
8.14

---

Biological target: Aryl hydrocarbon Receptor (AhR) (Rattus norvegicus)
Assay: AhR (PAH) CALUX reporter gene assay
Settings: EC50 AhR reference compound (mean), LAB C
recordedMetric: EC50
Answer format: number, then unit.

// query EC50 value for entry c1ccc2c(c1)cc1ccc3cccc4ccc2c1c34 [Benzo(a)pyrene, benzo[a]pyrene]
3.3 nM

All figures here come from paper PMC9962921.
